# assay system: T1, mouse DLL4 on cells (mouse, UniProt Q9JI71 27-686)
# T1 construct: whole, on cells; also called mouse DLL4-293G; mu DLL4 cells
# T1 sequence (Q9JI71 27-686): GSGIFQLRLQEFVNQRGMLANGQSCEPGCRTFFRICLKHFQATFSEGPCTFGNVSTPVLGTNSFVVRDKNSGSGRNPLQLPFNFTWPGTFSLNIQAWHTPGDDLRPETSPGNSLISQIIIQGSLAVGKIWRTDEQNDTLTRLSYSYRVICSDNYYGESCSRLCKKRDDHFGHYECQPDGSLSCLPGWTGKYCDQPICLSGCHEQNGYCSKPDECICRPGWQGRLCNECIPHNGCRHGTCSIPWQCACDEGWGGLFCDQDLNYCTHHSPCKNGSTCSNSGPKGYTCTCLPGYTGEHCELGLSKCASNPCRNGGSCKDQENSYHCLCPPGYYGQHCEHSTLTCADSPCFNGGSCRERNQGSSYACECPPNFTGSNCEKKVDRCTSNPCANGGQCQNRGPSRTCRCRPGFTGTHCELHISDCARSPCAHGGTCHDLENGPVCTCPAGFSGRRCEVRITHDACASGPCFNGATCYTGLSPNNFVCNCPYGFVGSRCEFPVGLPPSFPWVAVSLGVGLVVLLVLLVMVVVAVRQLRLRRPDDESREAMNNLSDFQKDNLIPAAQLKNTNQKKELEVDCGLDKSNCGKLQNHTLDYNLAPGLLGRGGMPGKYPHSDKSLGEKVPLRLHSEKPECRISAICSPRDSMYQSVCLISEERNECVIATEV
# assay procedure: FACS, DLL4 cells
observable: EC50
Answer with the number, then the unit.

Below, 3 binders whose answers are already recorded.
INSERT INTO measurements (binder, reported_value) VALUES
  ('h1A11.8 (antibody, V domains shown, humanized IgG; also called VH.1a/VL.2a 1A11) VH: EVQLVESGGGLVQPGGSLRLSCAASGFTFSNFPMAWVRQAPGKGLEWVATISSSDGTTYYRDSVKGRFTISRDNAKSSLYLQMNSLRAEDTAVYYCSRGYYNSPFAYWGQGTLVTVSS VL: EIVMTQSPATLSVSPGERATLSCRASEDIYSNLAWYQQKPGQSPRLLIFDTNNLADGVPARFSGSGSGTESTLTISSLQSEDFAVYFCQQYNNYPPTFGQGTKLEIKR', '0.18 nM'),
  ('h1A11.4 (antibody, V domains shown, humanized IgG; also called VH.1/VL.2a 1A11) VH: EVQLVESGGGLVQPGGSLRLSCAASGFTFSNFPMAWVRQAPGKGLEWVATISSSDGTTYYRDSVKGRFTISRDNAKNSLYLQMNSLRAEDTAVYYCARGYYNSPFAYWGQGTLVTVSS VL: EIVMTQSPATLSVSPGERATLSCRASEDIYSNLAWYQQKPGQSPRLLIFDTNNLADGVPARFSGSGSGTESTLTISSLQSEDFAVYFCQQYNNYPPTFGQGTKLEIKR', '0.22 nM'),
  ('h1A11.7 (antibody, V domains shown, humanized IgG; also called VH.1a/VL.1b 1A11) VH: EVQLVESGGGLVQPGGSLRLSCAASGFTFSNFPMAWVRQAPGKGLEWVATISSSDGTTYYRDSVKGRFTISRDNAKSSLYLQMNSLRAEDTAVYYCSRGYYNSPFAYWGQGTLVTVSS VL: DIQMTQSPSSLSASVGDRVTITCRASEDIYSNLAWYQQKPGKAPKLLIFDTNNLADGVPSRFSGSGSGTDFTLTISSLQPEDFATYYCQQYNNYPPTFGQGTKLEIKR', '0.18 nM');

Q) For the binder h1A11.1 (antibody, V domains shown, humanized IgG; also called hu1A11.1; VH.1/VL.1 1A11) VH: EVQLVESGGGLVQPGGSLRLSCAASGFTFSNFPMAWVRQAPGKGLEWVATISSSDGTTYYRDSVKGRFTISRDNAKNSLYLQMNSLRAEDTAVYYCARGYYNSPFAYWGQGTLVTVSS VL: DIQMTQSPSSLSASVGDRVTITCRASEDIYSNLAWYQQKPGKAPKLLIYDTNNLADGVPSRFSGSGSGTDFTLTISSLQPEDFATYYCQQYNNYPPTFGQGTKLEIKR , report EC50.
A) 0.21 nM

Q) For the binder 1A11 chimeric antibody (antibody, human IgG1, V domains shown, also called Chimera of 1A11; 1A11 (chimera)) VH: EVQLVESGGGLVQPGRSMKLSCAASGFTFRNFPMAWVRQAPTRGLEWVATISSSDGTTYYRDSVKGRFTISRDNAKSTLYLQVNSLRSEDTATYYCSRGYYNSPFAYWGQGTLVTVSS VL: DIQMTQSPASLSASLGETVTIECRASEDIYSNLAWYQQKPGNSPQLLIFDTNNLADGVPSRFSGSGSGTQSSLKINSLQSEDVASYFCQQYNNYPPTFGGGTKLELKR , report EC50.
A) 0.53 nM

Q) For the binder h1A11.2 (antibody, V domains shown, humanized IgG; also called VH.1/VL.1a 1A11) VH: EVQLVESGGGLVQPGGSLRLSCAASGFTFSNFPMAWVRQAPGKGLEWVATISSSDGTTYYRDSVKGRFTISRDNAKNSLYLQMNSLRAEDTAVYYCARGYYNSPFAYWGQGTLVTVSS VL: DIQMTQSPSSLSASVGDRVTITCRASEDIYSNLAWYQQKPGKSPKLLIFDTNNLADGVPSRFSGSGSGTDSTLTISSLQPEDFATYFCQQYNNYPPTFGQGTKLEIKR , report EC50.
A) 0.21 nM

Q) For the binder h1A11.5 (antibody, V domains shown, humanized IgG; also called VH.1a/VL.1 1A11) VH: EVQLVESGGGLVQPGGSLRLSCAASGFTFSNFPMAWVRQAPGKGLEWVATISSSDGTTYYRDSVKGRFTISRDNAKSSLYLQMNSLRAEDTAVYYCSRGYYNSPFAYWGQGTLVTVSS VL: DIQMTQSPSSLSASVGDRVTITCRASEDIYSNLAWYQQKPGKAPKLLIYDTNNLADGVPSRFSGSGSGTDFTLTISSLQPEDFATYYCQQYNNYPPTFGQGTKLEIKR , report EC50.
A) 0.21 nM

Q) For the binder h1A11.3 (antibody, V domains shown, humanized IgG; also called VH.1/VL.1b 1A11) VH: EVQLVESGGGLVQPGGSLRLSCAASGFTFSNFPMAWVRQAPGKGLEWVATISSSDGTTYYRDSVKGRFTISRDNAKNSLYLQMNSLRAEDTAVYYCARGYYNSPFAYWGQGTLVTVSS VL: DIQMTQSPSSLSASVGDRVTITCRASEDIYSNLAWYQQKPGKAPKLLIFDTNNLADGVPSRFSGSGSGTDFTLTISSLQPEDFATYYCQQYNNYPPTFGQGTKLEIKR , report EC50.
A) 0.24 nM

Q) For the binder h1A11.9 (antibody, V domains shown, humanized IgG; also called VH.1b/VL.1 1A11) VH: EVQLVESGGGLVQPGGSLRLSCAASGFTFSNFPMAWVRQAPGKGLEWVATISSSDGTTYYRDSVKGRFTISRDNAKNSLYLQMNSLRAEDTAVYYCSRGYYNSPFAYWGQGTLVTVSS VL: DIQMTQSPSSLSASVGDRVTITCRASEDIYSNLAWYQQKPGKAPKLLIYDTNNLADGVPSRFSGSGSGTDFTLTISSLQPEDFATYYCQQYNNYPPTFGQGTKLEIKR , report EC50.
A) 0.18 nM

Q) For the binder h1A11.6 (antibody, V domains shown, humanized IgG; also called VH.1a/VL.1a 1A11) VH: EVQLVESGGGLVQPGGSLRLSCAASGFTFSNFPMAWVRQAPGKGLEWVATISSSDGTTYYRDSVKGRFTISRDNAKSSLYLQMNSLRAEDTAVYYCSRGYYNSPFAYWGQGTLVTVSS VL: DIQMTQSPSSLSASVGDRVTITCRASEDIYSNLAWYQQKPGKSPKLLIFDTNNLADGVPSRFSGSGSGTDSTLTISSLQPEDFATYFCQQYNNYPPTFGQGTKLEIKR , report EC50.
A) 0.15 nM
